Tested on: Fer (mouse);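 further: 11-residue human phosphosite peptides and single-mutation variants displayed on the E. coli surface, counted by deep sequencing, each peptide's frequency after selection divided by its frequency in the unselected input library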;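 further: frequency after pTyr selection over input frequency; kinase dosed for 20-30% of maximal phosphorylation in three min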
RUN DESCRIPTION: phosphorylation enrichment, bacterial display (enrichment ratio); higher = better substrate or ligand; peptides without Tyr show the background
READOUT KIND: phosphorylation enrichment
The answer should be written as a number, with no unit following it.

> print(dat)
                   monomer.sequence  value
1           EDKFMYFEFPQ [PTEN_Y240]  0.421
2     GDNNIYVTKII [DLG1_Y349_S347N]  0.595
3          LQPNNYQFCGG [CSF1R_Y969]  0.627
4  YGPPQYNMQYS [ERBB2IP_Y977_I979M]  0.499
5          LAARYYNWVSF [FLT4_Y1231]   5.18
6          KDHPDYKYQPR [SOX10_Y171]  0.435
7          EEEPVYEAEPE [HCLS1_Y360]  0.655
8          DESEDYRDTVV [CNNM3_Y456]   0.78

Problem: Entry EGDGVYTLNDE [HP_Y125_N129D] has what phosphorylation enrichment?
Solution: 0.555

Problem: Likewise for AGIVDYNIIGW [MYH7_Y588] ?
Solution: 0.439

Problem: Likewise for KVITDYYVDMK [MPP4_Y566] ?
Solution: 0.496

Problem: Likewise for FMLFQYLKQIE [RPAP3_Y569_D564Y_YF] ?
Solution: 0.506

Problem: Likewise for IITVHYVLEES [RYR2_Y4559_A4556T] ?
Solution: 0.579

Problem: Likewise for LLKMMYLMLDN [STAT1_Y203_K201M] ?
Solution: 0.603

Data credit: the supplement of paper PMC10065799
